B1: Glucocorticoid receptor, residues 419 to 494; numbered along this chain, P04150 (parent)
chain: KLCLVCSDEASGCHYGVLTCGSCKVFFKRAVEGQHNYLCAGRNDCIIDKIRRKNCPACRYRKCLQAGMNLEARKTK

Variants of: B1
ASSAY_METHOD_TEXT: abundance fitness (aPCA) (normalised: wild type 0, dead -1); higher = more abundant; growth selection in yeast, the domain comes from the species named
MEASUREMENT_CONTEXT: Homo sapiens

MUT	abundance fitness
C13G	-0.154
K53D	0.083
K28Y	0.001
G33N	0.115
R61D	0.016
V25N	-0.081
L18D	0.062
L18K	-0.088
A10V	-0.305
L64S	-0.082
C55L	-1.1
N69Q	-0.071
K1C	-0.14
K76M	-0.023
N36Q	-0.034
K53H	-0.038
F26V	-0.738
M68K	-0.632
L64Y	-0.161
G21C	-0.064
K28Q	0.014
T19A	-0.031

These measurements were taken from the Human Domainome abundance scans (Beltran et al. 2025).
